Test system: antibodies in sera from SARS patients (sera 1a, 1b, 2, 6, 37, 62, London, SARS-yellow, SARS-green)
Type: binding, human
reportedMetric: Binding of serum 1a to linear peptides of protein N of SARS-CoV Urbani
Answers are plain numbers.

Record excerpt, results attached:
PQIAQFAPSASAFFG :: 0.2
IRQGTDYKHWPQIAQ :: 0.2
SRIGMEVTPSGTWLT :: 0.2
NPNNNAATVLQLPQG :: 0.4
RQKKQPTVTLLPAAD :: 0.3

Could you tell me Binding of serum 1a to linear peptides of protein N of SARS-CoV Urbani for each of these sequences? They are listed below.
1. WLTYHGAIKLDDKDP
2. ADMDDFSRQLQNSMS
3. SGTWLTYHGAIKLDD
4. GKMKELSPRWYFYYL
5. RQGTDYKHWPQIAQF
6. RRATRRVRGGDGKMK
7. GTGPEASLPYGANKE
8. KKTDEAQPLPQRQKK

1: 0.3; 2: 0.3; 3: 0.2; 4: 0.2; 5: 0.3; 6: 0.2; 7: 0.3; 8: 0.2

Could you tell me Binding of serum 1a to linear peptides of protein N of SARS-CoV Urbani for each of these sequences? They are listed below.
1. WFTALTQHGKEELRF
2. KMKELSPRWYFYYLG
3. PYGANKEGIVWVATE
4. GANKEGIVWVATEGA

1: 0.3; 2: 0.2; 3: 0.3; 4: 0.2

----------
Tested on: antibodies in sera from SARS patients (sera 1a, 1b, 2, 6, 37, 62, London, SARS-yellow, SARS-green)
Format: binding, human
reportedMetric: Binding of serum 2 to linear peptides of protein M of SARS-CoV Urbani
Answers are plain numbers.

Record excerpt, results attached:
QLLEQWNLVIGFLFL :: 0.5
AIAMACIVGLMWLSY :: 0.6
SFRLFARTRSMWSFN :: 0.5
LYIIKLVFLWLLWPV :: 0.6

Could you tell me Binding of serum 2 to linear peptides of protein M of SARS-CoV Urbani for each of these sequences? They are listed below.
1. VIGFLFLAWIMLLQF
2. RGTIVTRPLMESELV
3. GFLFLAWIMLLQFAY
4. LLQFAYSNRNRFLYI
5. IIKLVFLWLLWPVTL
6. LLEQWNLVIGFLFLA

1: 0.4; 2: 0.6; 3: 0.5; 4: 0.4; 5: 0.4; 6: 0.4

Could you tell me Binding of serum 2 to linear peptides of protein M of SARS-CoV Urbani for each of these sequences? They are listed below.
1. LKQLLEQWNLVIGFL
2. PVTLACFVLAAVYRI
3. EQWNLVIGFLFLAWI

1. 0.6
2. 0.5
3. 0.5

Could you tell me Binding of serum 2 to linear peptides of protein M of SARS-CoV Urbani for each of these sequences? They are listed below.
1. ESELVIGAVIIRGHL
2. RSMWSFNPETNILLN

1. 0.8
2. 0.6

Could you tell me Binding of serum 2 to linear peptides of protein M of SARS-CoV Urbani for each of these sequences? They are listed below.
1. TNILLNVPLRGTIVT
2. IAMACIVGLMWLSYF
3. MLLQFAYSNRNRFLY

1: 0.6; 2: 0.4; 3: 0.5

Could you tell me Binding of serum 2 to linear peptides of protein M of SARS-CoV Urbani for each of these sequences? They are listed below.
1. NPETNILLNVPLRGT
2. MESELVIGAVIIRGH
3. NVPLRGTIVTRPLME
4. TIVTRPLMESELVIG
5. ELVIGAVIIRGHLRM
6. TVATSRTLSYYKLGA

[0.8, 0.8, 0.4, 0.6, 0.7, 0.7]

Would you mind telling me what Binding of serum 2 to linear peptides of protein M of SARS-CoV Urbani value was observed for LMESELVIGAVIIRG ?
0.7
